Test system: NCI-H460
Assay: relative viability (nuclei count vs DMSO), 5 days (fraction); higher = more cells survive
Settings: first compound 1.265 µM
Checkbox rule: relative viability lower than 0.08 = 1.0; relative viability not lower than 0.08 = 0.0.

molecule="Cc1sc2c(c1C)C(c1ccc(Cl)cc1)=N[C@@H](CC(=O)OC(C)(C)C)c1nnc(C)n1-2 [JQ1] + CC(C)C[C@H](NC(=O)[C@H](Cc1ccccc1)NC(=O)c1cnccn1)B(O)O [Bortezomib] (partner 0.002 µM)" target_of_assay=NCI-H460 class=0.0
molecule="Cc1sc2c(c1C)C(c1ccc(Cl)cc1)=N[C@@H](CC(=O)OC(C)(C)C)c1nnc(C)n1-2 [JQ1] + CS(=O)(=O)N1CCN(Cc2cc3nc(-c4cccc5[nH]ncc45)nc(N4CCOCC4)c3s2)CC1 [Pictilisib] (partner 1 µM)" target_of_assay=NCI-H460 class=0.0
molecule="Cc1sc2c(c1C)C(c1ccc(Cl)cc1)=N[C@@H](CC(=O)OC(C)(C)C)c1nnc(C)n1-2 [JQ1] + N=C(N)NC(=N)NCCc1ccccc1 [Phenformin] (partner 250 µM)" target_of_assay=NCI-H460 class=1.0
molecule="Cc1sc2c(c1C)C(c1ccc(Cl)cc1)=N[C@@H](CC(=O)OC(C)(C)C)c1nnc(C)n1-2 [JQ1] + CCNC(=O)c1noc(-c2cc(C(C)C)c(O)cc2O)c1-c1ccc(CN2CCOCC2)cc1 [Luminespib] (partner 0.01 µM)" target_of_assay=NCI-H460 class=1.0
molecule="Cc1sc2c(c1C)C(c1ccc(Cl)cc1)=N[C@@H](CC(=O)OC(C)(C)C)c1nnc(C)n1-2 [JQ1] + CS(=O)(=O)CCNCc1ccc(-c2ccc3ncnc(Nc4ccc(OCc5cccc(F)c5)c(Cl)c4)c3c2)o1 [Lapatinib] (partner 2 µM)" target_of_assay=NCI-H460 class=0.0
molecule="Cc1sc2c(c1C)C(c1ccc(Cl)cc1)=N[C@@H](CC(=O)OC(C)(C)C)c1nnc(C)n1-2 [JQ1] + NC(=O)Nc1cc(-c2cccc(F)c2)sc1C(=O)N[C@H]1CCCNC1 [AZD7762] (partner 0.2 µM)" target_of_assay=NCI-H460 class=0.0
molecule="Cc1sc2c(c1C)C(c1ccc(Cl)cc1)=N[C@@H](CC(=O)OC(C)(C)C)c1nnc(C)n1-2 [JQ1] + O=C(c1cc(Cc2n[nH]c(=O)c3ccccc23)ccc1F)N1CCN(C(=O)C2CC2)CC1 [Olaparib] (partner 8 µM)" target_of_assay=NCI-H460 class=0.0

====

Reported relative viability values are given for each entry in this list.
Test system: NCI-H2228
Experiment: relative viability (nuclei count vs DMSO), 5 days (fraction); higher = more cells survive
Details: first compound 4 µM
readout-name: relative viability

compound="Cc1sc2c(c1C)C(c1ccc(Cl)cc1)=N[C@@H](CC(=O)OC(C)(C)C)c1nnc(C)n1-2 [JQ1] + Cc1nc(NC(=O)N2CCC[C@H]2C(N)=O)sc1-c1ccnc(C(C)(C)C(F)(F)F)c1 [Alpelisib] (partner 2 µM)" readout_name="relative viability" experimental_result=0.451
compound="Cc1sc2c(c1C)C(c1ccc(Cl)cc1)=N[C@@H](CC(=O)OC(C)(C)C)c1nnc(C)n1-2 [JQ1] + Nc1nc2[nH]cc(CCc3ccc(C(=O)N[C@@H](CCC(=O)O)C(=O)O)cc3)c2c(=O)[nH]1 [Pemetrexed] (partner 0.2 µM)" readout_name="relative viability" experimental_result=0.184
compound="Cc1sc2c(c1C)C(c1ccc(Cl)cc1)=N[C@@H](CC(=O)OC(C)(C)C)c1nnc(C)n1-2 [JQ1] + CCNC(=O)c1noc(-c2cc(C(C)C)c(O)cc2O)c1-c1ccc(CN2CCOCC2)cc1 [Luminespib] (partner 0.01 µM)" readout_name="relative viability" experimental_result=0.103
compound="Cc1sc2c(c1C)C(c1ccc(Cl)cc1)=N[C@@H](CC(=O)OC(C)(C)C)c1nnc(C)n1-2 [JQ1] + O=C(c1cc(Cc2n[nH]c(=O)c3ccccc23)ccc1F)N1CCN(C(=O)C2CC2)CC1 [Olaparib] (partner 8 µM)" readout_name="relative viability" experimental_result=0.181
compound="Cc1sc2c(c1C)C(c1ccc(Cl)cc1)=N[C@@H](CC(=O)OC(C)(C)C)c1nnc(C)n1-2 [JQ1] + C[C@]1(O)C[C@@H](c2nc(-c3ccc4ccc(-c5ccccc5)nc4c3)c3c(N)nccn32)C1 [Linsitinib] (partner 1 µM)" readout_name="relative viability" experimental_result=0.357

====

Reported relative viability values are given for each entry in this list.
Test system: NCI-H2085
Test: relative viability (nuclei count vs DMSO), 5 days (fraction); higher = more cells survive
Details: first compound 1.265 µM
readout-name: relative viability

compound="Cc1sc2c(c1C)C(c1ccc(Cl)cc1)=N[C@@H](CC(=O)OC(C)(C)C)c1nnc(C)n1-2 [JQ1] + C[C@]1(O)C[C@@H](c2nc(-c3ccc4ccc(-c5ccccc5)nc4c3)c3c(N)nccn32)C1 [Linsitinib] (partner 1 µM)" experimental_result=0.687
compound="Cc1sc2c(c1C)C(c1ccc(Cl)cc1)=N[C@@H](CC(=O)OC(C)(C)C)c1nnc(C)n1-2 [JQ1] + CS(=O)(=O)N1CCN(Cc2cc3nc(-c4cccc5[nH]ncc45)nc(N4CCOCC4)c3s2)CC1 [Pictilisib] (partner 1 µM)" experimental_result=0.368
compound="Cc1sc2c(c1C)C(c1ccc(Cl)cc1)=N[C@@H](CC(=O)OC(C)(C)C)c1nnc(C)n1-2 [JQ1] + Cc1nc(NC(=O)N2CCC[C@H]2C(N)=O)sc1-c1ccnc(C(C)(C)C(F)(F)F)c1 [Alpelisib] (partner 2 µM)" experimental_result=0.595
compound="Cc1sc2c(c1C)C(c1ccc(Cl)cc1)=N[C@@H](CC(=O)OC(C)(C)C)c1nnc(C)n1-2 [JQ1] + CC(C)C[C@H](NC(=O)[C@H](Cc1ccccc1)NC(=O)c1cnccn1)B(O)O [Bortezomib] (partner 0.002 µM)" experimental_result=0.61

====

Tested on: LXF-289
Assay: relative viability (nuclei count vs DMSO), 5 days (fraction); higher = more cells survive
Details: first compound 0.01581 µM
Reported relative viability values are given for each entry in this list.
readout-name: relative viability

compound="Nc1ccn([C@@H]2O[C@H](CO)[C@@H](O)[C@@H]2O)c(=O)n1 [Cytarabine] + CC1(C)CCC(c2ccc(Cl)cc2)=C(CN2CCN(c3ccc(C(=O)NS(=O)(=O)c4ccc(N[C@H](CCN5CCOCC5)CSc5ccccc5)c(S(=O)(=O)C(F)(F)F)c4)cc3)CC2)C1 [Navitoclax] (partner 0.5 µM)" target_of_assay=LXF-289 readout_name="relative viability" experimental_result=0.944
compound="COc1cc2nccc(Oc3ccc(NC(=O)Nc4cc(C)on4)c(Cl)c3)c2cc1OC [Tivozanib] + CCNC(=O)c1noc(-c2cc(C(C)C)c(O)cc2O)c1-c1ccc(CN2CCOCC2)cc1 [Luminespib] (partner 0.01 µM)" target_of_assay=LXF-289 readout_name="relative viability" experimental_result=0.611
compound="COc1cc2nccc(Oc3ccc(NC(=O)Nc4cc(C)on4)c(Cl)c3)c2cc1OC [Tivozanib] + C[C@@H](Oc1cc(-c2cnn(C3CCNCC3)c2)cnc1N)c1c(Cl)ccc(F)c1Cl [Crizotinib] (partner 1 µM)" target_of_assay=LXF-289 readout_name="relative viability" experimental_result=0.742
compound="COc1cc2nccc(Oc3ccc(NC(=O)Nc4cc(C)on4)c(Cl)c3)c2cc1OC [Tivozanib] + Cc1cc(Nc2cc(N3CCN(C)CC3)nc(Sc3ccc(NC(=O)C4CC4)cc3)n2)n[nH]1 [Tozasertib] (partner 0.1 µM)" target_of_assay=LXF-289 readout_name="relative viability" experimental_result=0.201

====

System: NCI-H2087
Assay: relative viability (nuclei count vs DMSO), 5 days (fraction); higher = more cells survive
Conditions: first compound 2.53 µM
Reported relative viability values are given for each entry in this list.
readout-name: relative viability

compound="Cc1cnc(-c2cnc(NCCNc3ccc(C#N)cn3)nc2-c2ccc(Cl)cc2Cl)[nH]1 + CS(=O)(=O)CCNCc1ccc(-c2ccc3ncnc(Nc4ccc(OCc5cccc(F)c5)c(Cl)c4)c3c2)o1 [Lapatinib] (partner 2 µM)" experimental_result=0.979
compound="Cc1cnc(-c2cnc(NCCNc3ccc(C#N)cn3)nc2-c2ccc(Cl)cc2Cl)[nH]1 + O=C(c1cc(Cc2n[nH]c(=O)c3ccccc23)ccc1F)N1CCN(C(=O)C2CC2)CC1 [Olaparib] (partner 8 µM)" experimental_result=0.459
compound="O=c1[nH]c2ccccc2n1C1CCN(CCCC(c2ccc(F)cc2)c2ccc(F)cc2)CC1 [Pimozide] + CC(=O)c1c(C)c2cnc(Nc3ccc(N4CCNCC4)cn3)nc2n(C2CCCC2)c1=O [Palbociclib] (partner 0.5 µM)" experimental_result=0.274
compound="O=c1[nH]c2ccccc2n1C1CCN(CCCC(c2ccc(F)cc2)c2ccc(F)cc2)CC1 [Pimozide] + NC(=O)Nc1cc(-c2cccc(F)c2)sc1C(=O)N[C@H]1CCCNC1 [AZD7762] (partner 0.2 µM)" experimental_result=1.22
compound="O=c1[nH]c2ccccc2n1C1CCN(CCCC(c2ccc(F)cc2)c2ccc(F)cc2)CC1 [Pimozide] + COc1cccc2cc(-c3nc([C@H]4CC[C@H](C(=O)O)CC4)n4ncnc(N)c34)[nH]c12 [OSI-027] (partner 0.5 µM)" experimental_result=0.427
compound="O=c1[nH]c2ccccc2n1C1CCN(CCCC(c2ccc(F)cc2)c2ccc(F)cc2)CC1 [Pimozide] + CS(=O)(=O)CCNCc1ccc(-c2ccc3ncnc(Nc4ccc(OCc5cccc(F)c5)c(Cl)c4)c3c2)o1 [Lapatinib] (partner 2 µM)" experimental_result=1.06
compound="O=c1[nH]c2ccccc2n1C1CCN(CCCC(c2ccc(F)cc2)c2ccc(F)cc2)CC1 [Pimozide] + N=C(N)NC(=N)NCCc1ccccc1 [Phenformin] (partner 250 µM)" experimental_result=0.464
compound="Cc1cnc(-c2cnc(NCCNc3ccc(C#N)cn3)nc2-c2ccc(Cl)cc2Cl)[nH]1 + CC1(C)CCC(c2ccc(Cl)cc2)=C(CN2CCN(c3ccc(C(=O)NS(=O)(=O)c4ccc(N[C@H](CCN5CCOCC5)CSc5ccccc5)c(S(=O)(=O)C(F)(F)F)c4)cc3)CC2)C1 [Navitoclax] (partner 0.5 µM)" experimental_result=0.967
compound="O=c1[nH]c2ccccc2n1C1CCN(CCCC(c2ccc(F)cc2)c2ccc(F)cc2)CC1 [Pimozide] + O=C(c1cc(Cc2n[nH]c(=O)c3ccccc23)ccc1F)N1CCN(C(=O)C2CC2)CC1 [Olaparib] (partner 8 µM)" experimental_result=0.579
compound="Cc1cnc(-c2cnc(NCCNc3ccc(C#N)cn3)nc2-c2ccc(Cl)cc2Cl)[nH]1 + CC(C)C[C@H](NC(=O)[C@H](Cc1ccccc1)NC(=O)c1cnccn1)B(O)O [Bortezomib] (partner 0.002 µM)" experimental_result=0.808

Data origin: the supplement of paper PMC10307832
